Provide the reported No measurable CR at given concentration of each item.
System: antibodies of the invention (antisera generated in response to immunogen of Example 5)
Test: Competitive chemiluminescent biochip immunoassay, antiserum raised against immunogen of Example 5, HRP conjugate of Example 6
Format: binding, sheep
Details: value is the concentration at which no cross-reactivity was exhibited
Give bare numbers, in µg/mL.

Record excerpt, results attached:
// recorded No measurable CR at given concentration for CNCCC(Oc1ccc(C(F)(F)F)cc1)c1ccccc1 (stereo not drawn) : 100

Entry under test: CCO[C@@H]1O[C@H](C(=O)O)[C@@H](O)[C@H](O)[C@H]1O [Ethyl glucuronide] . Its No measurable CR at given concentration was 100

Continuing:
Record CCOC(=O)C(c1ccccc1)C1CCCCN1 (stereo not drawn) [Ethylphenidate] . Reported No measurable CR at given concentration: 100
